meta.source: PubChem BioAssay (NCI)

Entries and their measured growth follow.
# Test system: K-562 leukemia
# Test: NCI-60 one-dose screen, 48 h (100 = growth as untreated, 0 = no growth, -100 = all killed)
# Experimental Conditions: 10 µM unless noted
This is part of a sample that, as a whole, favours compounds with a hit. Of some 83,000 tested, about 20% had one in any assay. The source made the active and inactive calls. The calls were made as follows: active = growth percent below 10; inactive = the rest.

Below, 3 compounds whose answers are already recorded.
INSERT INTO results (compound, test_readout, value_observed) VALUES
  ('CNC(=O)c1cc(Oc2ccc3nc(NC(=O)Nc4ccc(C(F)(F)F)cc4)sc3c2)ccn1', 'growth', '76.3% (inactive)'),
  ('CSc1nnc(-c2cc3c([nH]c4ccccc43)c(-c3cccc(O)c3)n2)n1-c1ccc(C)cc1', 'growth', '10.2% (inactive)'),
  ('COc1cc(F)c(/C=C/c2cc(/C=C/c3cc(OC)c(OC)cc3F)n(-c3cc(F)cc(F)c3)n2)cc1OC', 'growth', '20.3% (inactive)');

Record lookup: for K-562 leukemia, what growth belongs to "COc1ccc(Cn2cc(C(=O)Nc3cccnc3Nc3ccccc3)nn2)cc1" ?
108% (inactive)

Also "N=C(N)c1ccc(-c2ccc(-c3ccc(Cl)c(Cl)c3)s2)cc1" , if possible.
-11.6% (active)

Also "C=C1C(=O)O[C@H]2[C@H]1CC/C(COC(=O)NCc1ccc(Cn3c(=O)sn(CCCI)c3=O)cc1)=C\CC[C@@]1(C)O[C@@H]21" , if possible.
4.22% (active)

Also "N#Cc1c(N)nnn1Cc1cc(=O)oc2ccc(O)cc12" , if possible.
96.1% (inactive)

Also "CCNC(=O)Oc1ccc(/C(=C(/C)Cc2ccc(OC)cc2)c2ccc(OCCN(CC)CC)cc2)cc1" , if possible.
-45.2% (active)

Also "CCOC(=O)c1ccc(Nc2ncnc3c2cnn3-c2cccc(F)c2)cc1" , if possible.
96.7% (inactive)

Also "CN(C)C(=O)c1cc2cnc(Nc3ccc(-c4csc5c(=S)cc(N6CCOCC6)oc45)cc3)nc2n1C1CCCC1" , if possible.
10% (inactive)

Also "Cc1cc(N2CCCCC2)nc(NCc2cc(Nc3ccnc4cc(Cl)ccc34)ccc2F)n1" , if possible.
-31.4% (active)

Also "Cc1c(C(C)(C)O)cn2ncnc(Oc3ccc(NC(=O)Nc4ccc(Cl)c(C(F)(F)F)c4)cc3)c12" , if possible.
14.9% (inactive)

Also "C#CCn1cnc2cnc(Nc3cccc(NC(=O)CCl)c3)nc21" , if possible.
4.47% [6.25 µM] (active)
